Biological target: KSP motor domain (Homo sapiens)
Sequence (P52732 18-359 limits assumed): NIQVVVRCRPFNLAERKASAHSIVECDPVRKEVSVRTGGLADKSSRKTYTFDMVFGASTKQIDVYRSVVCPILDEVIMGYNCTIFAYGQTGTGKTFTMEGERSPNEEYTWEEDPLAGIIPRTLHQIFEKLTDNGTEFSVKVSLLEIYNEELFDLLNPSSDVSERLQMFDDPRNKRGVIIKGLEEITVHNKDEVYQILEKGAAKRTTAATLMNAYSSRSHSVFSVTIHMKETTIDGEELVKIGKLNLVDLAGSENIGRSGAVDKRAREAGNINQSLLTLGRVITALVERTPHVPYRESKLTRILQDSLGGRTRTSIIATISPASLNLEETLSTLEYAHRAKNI
Experiment: biochemical
Conditions: KSP inhibitory activity, end-point assay; class symbols (Table 1); read-out: IC50
pIC50: −log10 of the molar value.
PROPERTY: pIC50

> print(dat)
                                   compound                      test.system  value.reported
1             N#Cc1sc2nc3c(cc2c1N)CC(=O)CC3  KSP motor domain (Homo sapiens)          < 5.00
2  CC(C)(C)[C@@H]1CCc2nc3sc(C(=O)N[C@H](CN)c4ccc(NC(=O)c5ccco5)cc4)cc3cc2C1  KSP motor domain (Homo sapiens)          > 7.00

KSP motor domain (Homo sapiens) data for CC(C)(C)C1CCc2nc3sc(CC(N)=O)cc3cc2C1 (centres unmarked) ; its pIC50: 5.00 to 6.00

KSP motor domain (Homo sapiens) data for "CC(C)(C)[C@@H]1CCc2nc3sc(C(=O)N[C@H](CN)c4cccc(NC(=O)c5cc(-c6ccccc6)on5)c4)cc3cc2C1" ; its pIC50: > 7.00

KSP motor domain (Homo sapiens) data for CCCC1CCCc2cc3c(N)c(C#N)sc3nc21 (centres unmarked) ; its pIC50: < 5.00

The origin of these recorded values is patent US20060247320A1.
